Molecular target: UniProtKB P43220
Experiment: GLP-1R activation: cAMP increase in CHO cells stably expressing GLP-1R
Format: cell-based
Details: cAMP increase, CHO cells stably expressing GLP-1R, 10 point dose response, 30 minutes incubation; read-out: EC50
Label key: YES means EC50 under 10 nM; NO means EC50 of 10 nM or more.

N#Cc1ccc(COc2nccc(-c3ccc(Cc4nc5ccc(C(=O)O)cc5n4C[C@@H]4CCO4)c(F)c3)n2)c(F)c1 [Example 351]: YES
N#Cc1ccc(COc2cccc(-c3cc(F)c(Cc4nc5ccc(C(=O)O)cc5n4Cc4ncccn4)cc3F)n2)c(F)c1 [Example 269]: NO
N#Cc1ccc(COc2cccc(-c3cc(F)c(Cc4nc5ccc(C(=O)O)cc5n4C[C@@H]4CCO4)cc3F)n2)c(F)c1 (single isomer, unassigned) [Example 757]: YES
COCCn1c(Cc2ccc(-c3cccc(NCc4ccc(C#N)cc4OC)n3)cc2F)nc2ccc(C(=O)O)cc21 [Example 195]: NO
COCCn1c(Cc2cc(F)c(-c3cccc(OCc4ccc(C#N)c(F)c4F)n3)cc2F)nc2ccc(C(=O)O)cc21 [Example 859]: NO
N#Cc1ccc(COc2ccc(F)c(-c3cc(F)c(Cc4nc5ccc(C(=O)O)cc5n4C[C@@H]4CCO4)cc3F)n2)c(F)c1 [Example 793]: YES

###

Assay: Microsomal stability, human liver microsomes (predicted hepatic clearance)
Conditions: predicted from in vitro microsomal stability data
The following compounds are shown together with reported Predicted Hepatic Clearance (Pred. Cl.) values.
measuredProperty: Predicted Hepatic Clearance (Pred. Cl.) (mL/min/kg)

N#Cc1ccc(COc2cccc(-c3cc(F)c(Cc4nc5ccc(C(=O)O)nc5n4CCOC(F)F)cc3F)n2)c(F)c1: 10.3
N#Cc1ccc(COc2cccc(-c3cc(F)c(Cc4nc5cc(F)c(C(=O)O)cc5n4C[C@@H]4CCO4)cc3F)n2)c(F)c1: 2.83
COCCn1c(Cc2cc(F)c(-c3cccc(OCc4ccc(C(F)(F)F)cc4F)n3)cc2F)nc2ccc(C(=O)O)cc21: 2.17
CC(C)(C)C(=O)N1CC[C@@H]1Cn1c(Cc2ccc(-c3cccc(OCc4ccc(C#N)cc4F)n3)cc2F)nc2ccc(C(=O)O)cc21: 8.83
N#CCC1(Cn2c(Cc3cc(F)c(-c4ccnc(OCc5ccc(C#N)cc5F)n4)cc3F)nc3ccc(C(N)=O)nc32)CC1: 12.3
COCCn1c(Cc2ccc(-c3cccc(OCc4cccc5c4oc4ccccc45)n3)cc2F)nc2ccc(C(=O)O)cc21: 5.67
COc1cc(Cl)ccc1COc1nccc(-c2ccc(Cc3nc4ccc(C(=O)O)cc4n3CC3(CF)CC3)cc2F)n1: 13.8
N#Cc1ccc(COc2cccc(-c3ccc(Cc4nc5ccc(C(=O)O)cc5n4CC4CCO4)c(F)c3)n2)c(F)c1 (single isomer, unassigned) [Example 67]: 5.17
N#CCC1(Cn2c(Cc3c(F)cc(-c4ccc(F)c(OCc5ccc(C#N)cc5F)n4)cc3F)nc3ccc(C(=O)O)cc32)CC1: 4.83
COCCn1c(Cc2ccc(-c3cccc(OCc4ccc(Cl)cc4OC)n3)cc2F)nc2ccc(C(=O)O)cc21: 6.83

###

Biological target: GLP-1R (Homo sapiens)
Sequence (P43220 24-463): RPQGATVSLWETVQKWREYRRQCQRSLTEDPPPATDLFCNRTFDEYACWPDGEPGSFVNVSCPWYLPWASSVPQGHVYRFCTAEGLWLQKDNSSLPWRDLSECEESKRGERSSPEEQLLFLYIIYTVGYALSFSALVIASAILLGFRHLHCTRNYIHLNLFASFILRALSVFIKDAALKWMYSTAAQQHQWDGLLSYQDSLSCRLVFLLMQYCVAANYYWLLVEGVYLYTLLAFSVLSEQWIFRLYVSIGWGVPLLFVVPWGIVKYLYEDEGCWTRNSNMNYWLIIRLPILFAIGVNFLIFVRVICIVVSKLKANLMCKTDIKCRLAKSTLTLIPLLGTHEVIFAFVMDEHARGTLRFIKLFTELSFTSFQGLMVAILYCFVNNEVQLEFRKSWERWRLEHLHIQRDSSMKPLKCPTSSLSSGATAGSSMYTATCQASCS
Assay: GLP-1R activation: cAMP increase in CHO cells stably expressing GLP-1R
Format: cell-based
Conditions: cAMP increase, CHO cells stably expressing GLP-1R, 10 point dose response, 30 minutes incubation; read-out: EC50
Lab note: anything with EC50 below 0.9 nM is marked true; values at 0.9 nM or higher are marked false.

O=C(O)c1ccc2nc(Cc3cc(F)c(-c4nc(OCc5ccc(C(F)F)cc5F)ncc4F)cc3F)n(C[C@@H]3CCO3)c2c1: true
O=C(O)c1ccc2nc(Cc3ccc(-c4ccc(F)c(OCc5ccc(C(F)F)cc5F)n4)cc3F)n(C[C@@H]3CCO3)c2c1: true
O=C(O)c1ccc2nc(Cc3ccc(-c4cccc(OCc5ccc(C(F)(F)F)nc5)n4)c(F)c3)n(C[C@@H]3CCO3)c2c1: false
COCCn1c(Cc2cc(F)c(-c3nc(OCc4ccc(C#N)cc4F)c(F)cc3F)cc2F)nc2ccc(C(=O)O)cc21: false
N#Cc1ccc(COc2cccc(-c3ccc(Cc4nc5c(F)cc(C(=O)O)cc5n4C[C@@H]4CCO4)cc3F)n2)c(F)c1: false
COCCn1c(Cc2ccc(-c3cccc(OCc4ccc(C#N)cc4F)n3)cc2CO)nc2ccc(C(=O)O)cc21: false
